Hi there, I'd appreciate the recorded Biochem EGFR %Inhibition for every entry that follows.
- SYSTEM: EGFR (Homo sapiens)
- Construct: Add 7 ug A431 cell lysate per well (EGFR source); endogenous in cells; host or cells: A431
- Sequence (P00533 25-1210): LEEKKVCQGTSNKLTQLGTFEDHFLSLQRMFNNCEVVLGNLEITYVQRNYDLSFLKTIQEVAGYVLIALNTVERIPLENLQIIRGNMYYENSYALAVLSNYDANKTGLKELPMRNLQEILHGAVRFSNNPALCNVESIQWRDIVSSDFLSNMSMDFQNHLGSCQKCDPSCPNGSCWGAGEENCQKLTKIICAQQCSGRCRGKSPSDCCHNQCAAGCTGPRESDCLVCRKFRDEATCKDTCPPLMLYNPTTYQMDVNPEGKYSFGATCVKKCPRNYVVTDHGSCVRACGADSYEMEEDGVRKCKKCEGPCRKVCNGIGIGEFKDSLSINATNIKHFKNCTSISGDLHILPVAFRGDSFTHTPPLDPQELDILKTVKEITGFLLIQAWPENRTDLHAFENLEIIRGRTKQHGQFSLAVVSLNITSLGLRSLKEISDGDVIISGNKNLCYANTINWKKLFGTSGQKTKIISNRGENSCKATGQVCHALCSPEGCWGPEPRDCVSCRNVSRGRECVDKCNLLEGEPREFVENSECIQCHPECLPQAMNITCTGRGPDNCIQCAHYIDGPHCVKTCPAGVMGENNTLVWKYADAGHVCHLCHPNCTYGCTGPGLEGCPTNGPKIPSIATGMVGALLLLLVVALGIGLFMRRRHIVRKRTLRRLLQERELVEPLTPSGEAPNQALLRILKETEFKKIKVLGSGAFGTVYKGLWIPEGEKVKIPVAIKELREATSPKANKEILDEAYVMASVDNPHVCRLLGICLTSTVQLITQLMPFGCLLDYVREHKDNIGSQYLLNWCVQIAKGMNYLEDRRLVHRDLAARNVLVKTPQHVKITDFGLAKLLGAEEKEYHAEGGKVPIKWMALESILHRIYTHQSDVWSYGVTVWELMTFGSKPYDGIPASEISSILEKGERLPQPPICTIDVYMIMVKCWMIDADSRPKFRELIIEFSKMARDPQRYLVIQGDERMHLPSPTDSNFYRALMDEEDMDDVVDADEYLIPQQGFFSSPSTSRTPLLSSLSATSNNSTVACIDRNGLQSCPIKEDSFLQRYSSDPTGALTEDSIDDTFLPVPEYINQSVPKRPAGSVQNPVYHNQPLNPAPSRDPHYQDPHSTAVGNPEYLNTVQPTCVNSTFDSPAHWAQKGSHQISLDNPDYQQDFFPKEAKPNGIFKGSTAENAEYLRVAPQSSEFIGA
- EXPERIMENT_NOTES: EGFR ELISA assay (in vitro kinase activity, EGFR captured from A431 cell lysate)
- Assay type: biochemical
- Design: concentration or dose not given beside the values
Numbers only, in %.

Required: Biochem EGFR %Inhibition, one value per molecule below.
1. O=C1Nc2ccc(S(=O)(=O)Nc3ccc(C(F)(F)F)cc3)cc2C1=Cc1cc(O)ccc1O
2. CC(C)c1cc(C=C2C(=O)Nc3ccc(I)cc32)cc(C(C)C)c1O
3. O=C1Nc2ccc(F)cc2C1=C1C(=O)Nc2ccc(I)cc21
4. CNS(=O)(=O)c1ccc2c(c1)C(=Cc1cccc(C(F)(F)F)c1F)C(=O)N2
5. O=C1Nc2ccc(S(=O)(=O)Nc3ccc(C(F)(F)F)cc3)cc2C1=Cc1ccccc1Sc1ccc(Cl)cc1

Resp:
1. 85.1
2. 30.9
3. 23.6
4. 2.4
5. 12.9

// for each molecule below, give its Biochem EGFR %Inhibition
1. CN(C)c1ccc(C=C2C(=O)Nc3ccc(CCCl)cc32)cc1
2. Cc1c(Br)ccc2c1C(=Cc1ccc(O)c(O)c1O)C(=O)N2
3. CNS(=O)(=O)c1ccc2c(c1)C(=Cc1ccc([N+](=O)[O-])c(O)c1)C(=O)N2
4. O=C1Nc2ccc(S(=O)(=O)Nc3ccc(C(F)(F)F)cc3)cc2C1=CC(c1cccs1)C(F)(F)F (stereo not drawn)

Resp:
65.4
73.6
5.4
0.8
